Test system: influenza A virus HK/68
Experiment: microbe, parasite or virus in culture
Type: cell-based, influenza A virus A/Hong Kong/68 (H3N2)
measurement_kind: 50% inhibitory concentration, influenza A virus HK/68

Query: Indicate its recorded 50% inhibitory concentration, influenza A virus HK/68; the compound in question is Cc1ccccc1/N=N/c1ccc(/N=N/c2c(O)ccc3cc(S(=O)(=O)O)cc(S(=O)(=O)O)c23)c(C)c1 [Compound 5]
Response: Not active

Query: Output 50% inhibitory concentration, influenza A virus HK/68 of O=S(=O)(O)c1ccc(/N=N/c2ccc(/N=N/c3c(O)c(S(=O)(=O)O)cc4cc(S(=O)(=O)O)ccc34)cc2)cc1 [Compound 9]
Response: Not active

Query: Find the measured 50% inhibitory concentration, influenza A virus HK/68 of O=[N+]([O-])c1ccc(/N=N/c2c(O)c(S(=O)(=O)O)cc3cc(S(=O)(=O)O)ccc23)cc1 [Compound 12] and report it.
Response: Not active

###

Biological target: S. pneumoniae recombinant NanA 20566_CC (Streptococcus pneumoniae, UniProt P62575)
Assay: biochemical
Set-up: species or system Streptococcus pneumoniae DSM20566
Conditions: Ki (fit in Lineweaver-Burk plot, Supplementary Figure 2C)
measurement_kind: Ki (nM)
All answers are understood in nM, so give the number only.

Query: Find the measured Ki of Cc1cc(N=Nc2ccc(N=Nc3c(O)c(S(=O)(=O)O)cc4cc(S(=O)(=O)O)ccc34)cc2C)ccc1N=Nc1ccc2cc(S(=O)(=O)O)cc(S(=O)(=O)O)c2c1 and report it.
Response: 143

###

System: S. pneumoniae DSM20566 biofilm
Test: Biofilm inhibition assay
Assay type: cell-based, Streptococcus pneumoniae DSM20566
Settings: 24 h, maximum 50 μM
measurement_kind: 50% inhibitory concentration, S. pneumoniae DSM20566 biofilm formation

Query: Enter recorded 50% inhibitory concentration, S. pneumoniae DSM20566 biofilm formation with S. pneumoniae DSM20566 biofilm for O=[N+]([O-])c1ccc(/N=N/c2c(O)c(S(=O)(=O)O)cc3cc(S(=O)(=O)O)ccc23)cc1 here.
Response: Not active

Query: State, for S. pneumoniae DSM20566 biofilm, measured 50% inhibitory concentration, S. pneumoniae DSM20566 biofilm formation of the compound listed here: O=S(=O)(O)c1ccc2c(/N=N/c3ccc(/N=N/c4ccccc4)cc3)c(O)ccc2c1
Response: Not active

Query: Enter 50% inhibitory concentration, S. pneumoniae DSM20566 biofilm formation (test system S. pneumoniae DSM20566 biofilm) for O=S(=O)(O)c1cc2cccc(S(=O)(=O)O)c2c(O)c1/N=N/c1ccccc1
Response: Not active

Query: Provide 50% inhibitory concentration, S. pneumoniae DSM20566 biofilm formation, recorded with S. pneumoniae DSM20566 biofilm, of O=S(=O)(O)c1ccc(/N=N/c2ccc(/N=N/c3c(O)c(S(=O)(=O)O)cc4cc(S(=O)(=O)O)ccc34)cc2)cc1
Response: Not active

Query: Report 50% inhibitory concentration, S. pneumoniae DSM20566 biofilm formation on S. pneumoniae DSM20566 biofilm for this entry: O=S(=O)(O)c1ccc2c(/N=N/c3c(O)ccc4ccccc34)cccc2c1
Response: Not active

Query: Report 50% inhibitory concentration, S. pneumoniae DSM20566 biofilm formation on S. pneumoniae DSM20566 biofilm for this entry: O=[N+]([O-])c1cccc(/N=N/c2c(O)c(S(=O)(=O)O)cc3cc(S(=O)(=O)O)ccc23)c1
Response: Not active

More entries:
Query: Tell me its 50% inhibitory concentration, S. pneumoniae DSM20566 biofilm formation on S. pneumoniae DSM20566 biofilm: O=S(=O)(O)c1cc(/N=N/c2c(O)ccc3ccccc23)c2c(S(=O)(=O)O)cccc2c1
Response: Not active

Query: Identify measured 50% inhibitory concentration, S. pneumoniae DSM20566 biofilm formation obtained with S. pneumoniae DSM20566 biofilm for COc1cc(/N=N/c2ccc(S(=O)(=O)O)cc2)ccc1/N=N/c1c(O)ccc2cc(S(=O)(=O)O)ccc12 .
Response: Not active

Query: Please look at O=[N+]([O-])c1ccc(/N=N/c2c(O)ccc3cc(S(=O)(=O)O)ccc23)cc1 and tell me its recorded 50% inhibitory concentration, S. pneumoniae DSM20566 biofilm formation on S. pneumoniae DSM20566 biofilm.
Response: Not active

Query: Provide 50% inhibitory concentration, S. pneumoniae DSM20566 biofilm formation, system S. pneumoniae DSM20566 biofilm, entry O=S(=O)(O)c1ccc2c(/N=N/c3ccccc3)c(O)ccc2c1
Response: Not active
